Reported RVR ED15 values are given for each entry in this list.
# System: Canis familiaris
# assay_name: Compound was evaluated for determining renal vascular resistance(iv) in dogs
# Format: functional, Canis lupus familiaris
I only need the number, in µg/kg, no unit after it.

| compound | number |
| --- | --- |
| Br.C=CCN1CCc2c(cc(O)c(O)c2Cl)C(c2ccc(Cl)c(O)c2)C1 (stereo not drawn) | 19 |
| Br.C=CCN1CCc2c(cc(O)c(O)c2Cl)C(c2cccc(Cl)c2)C1 (stereo not drawn) | 22 |

Below: the item to evaluate.
For NCCc1ccc(O)c(O)c1 the compound record lists RVR ED15 as 2.7

====

Each entry below lists one item and its recorded log10 RD500 value.
# Tested on: Rattus norvegicus
# assay_name: Central dopaminergic activity for minimum concentration which produced 500 rotations(ip) in 2 h
# Format: functional
The figures below represent log10 of RD500, where RD500 is stated in mg/kg.

Lab note: Br.Oc1cc2c(c(Cl)c1O)CCNCC2c1ccc(Cl)cc1 (stereo not given) gave log10 RD500 of 0.53

Form: compound = Br.C=CCN1CCc2c(cc(O)c(O)c2Cl)C(c2cccc(C)c2)C1 (stereo not given) ; log10 RD500 = -1.40

====

# Species: Rattus norvegicus
# assay_name: Adenylase cyclase activity in rat striatal membranes at the concentration of 10e-6
# Format: functional
# test_parameters: Striatum, Membrane
Quick list: DA response per entry.
Please state the figure in %; there is no need to write the unit.

Some compounds with recorded DA response:
| compound | DA response (%) |
| --- | --- |
| Br.Cc1ccc(C2CNCCc3c2cc(O)c(O)c3Cl)cc1 (configuration not stated) | 23 |
| Br.C=CCN1CCc2c(cc(O)c(O)c2Cl)C(c2cccc(Cl)c2)C1 (configuration not stated) | 92 |
| Br.CN1CCc2c(cc(O)c(O)c2Cl)C(c2cccc(Cl)c2)C1 (configuration not stated) | 22 |
| Br.Cc1cccc(C2CN(C)CCc3c2cc(O)c(O)c3Cl)c1 (configuration not stated) | 15 |
| Br.Cc1ccccc1C1CNCCc2c1cc(O)c(O)c2Cl (configuration not stated) | 30 |
| Br.Oc1cc2c(c(Cl)c1O)CCNCC2c1cccc(C(F)(F)F)c1 (configuration not stated) | 59 |

// below: DA response requested for another compound
Please fill in: DA response reported for Br.Oc1cc2c(c(Cl)c1O)CCNCC2c1ccc(Cl)cc1 (configuration not stated) = 52

====

# Species: Canis familiaris
# assay_name: Renal blood flow was measured in dogs; Highly significant activity
# Type: functional, organism-based
# test_parameters: Canis lupus familiaris; Kidney
Activity calls are given as the source filed them. The calls are words filed in the database; no cut-off is given here.
measured_endpoint: RBF

| molecule | result |
| --- | --- |
| Br.Oc1cc2c(c(Cl)c1O)CCNCC2c1ccccc1 (stereo not given) | Active |
| Br.C=CCN1CCc2c(cc(O)c(O)c2Cl)C(c2ccccc2)C1 (stereo not given) | Active |
| NCCc1ccc(O)c(O)c1 | Active |

====

# Test system: Rattus norvegicus
# assay_name: Central dopaminergic activity for minimum concentration which produced 500 rotations(ip) in 2 h
# Assay type: functional
// classify: if (RD500 < 0.03 mg/kg) Criterion met else Criterion not met

Please review the following examples before continuing.
| molecule | target_system | class_name |
| --- | --- | --- |
| Br.Oc1cc2c(c(Cl)c1O)CCNCC2c1cccc(C(F)(F)F)c1 (stereo not drawn) | Rattus norvegicus | Criterion not met |
| Br.CCN1CCc2c(cc(O)c(O)c2Cl)C(c2ccccc2)C1 (stereo not drawn) | Rattus norvegicus | Criterion met |
| Br.Cc1cccc(C2CN(C)CCc3c2cc(O)c(O)c3Cl)c1 (stereo not drawn) | Rattus norvegicus | Criterion not met |
| Br.C=CCN1CCc2c(cc(O)c(O)c2Cl)C(c2cccc(Cl)c2)C1 (stereo not drawn) | Rattus norvegicus | Criterion not met |
| Br.Cc1cccc(C2CNCCc3c2cc(O)c(O)c3Cl)c1 (stereo not drawn) | Rattus norvegicus | Criterion not met |
| CC(=O)Oc1cc2c(c(Cl)c1OC(C)=O)CCN(C)CC2c1ccccc1.Cl (stereo not drawn) | Rattus norvegicus | Criterion met |

# check: RD500 < 0.03 mg/kg for Cl.Oc1cc2c(c(Cl)c1O)CCN(Cc1cccs1)CC2c1ccccc1 (stereo not drawn)
Criterion not met

RD500 under 0.03 mg/kg? Item: Br.Oc1cc2c(c(Cl)c1O)CCNCC2c1cccc(Cl)c1 (stereo not drawn)
Criterion not met

====

# Organism: Rattus norvegicus
# assay_name: Adenylase cyclase activity in rat striatal membranes at the concentration of 10e-6
# Type: functional
# test_parameters: Striatum, Membrane
measured_endpoint: DA response (%)
Numbers only here, please. The scale is %.

Guide cases for DA response, answers given:
| compound | DA response / % |
| --- | --- |
| Br.Oc1cc2c(c(Cl)c1O)CCNCC2c1cccc(Cl)c1 (stereo not given) | 82 |
| Cl.Oc1cc2c(c(Cl)c1O)CCN(Cc1ccco1)CC2c1ccccc1 (stereo not given) | 41 |
| Cl.Oc1cc2c(c(Cl)c1O)CCN(Cc1cccs1)CC2c1ccccc1 (stereo not given) | 51 |
| Br.CCCCN1CCc2c(cc(O)c(O)c2Cl)C(c2ccccc2)C1 (stereo not given) | 85 |

Please examine the following record next.
Recorded result, Br.CCN1CCc2c(cc(O)c(O)c2Cl)C(c2ccccc2)C1 (stereo not given) , DA response: 48
